- Tested on: paclitaxel binding site on tubulin
- protocol.details: Paclitaxel binding site inhibition assay ([3H]paclitaxel displacement from microtubules)
- Parameters: species or system bovine
- condition.details: 4 μM test agent, 2 μM [3H]paclitaxel, microtubules from 2 μM tubulin and 20 μM dideoxyGTP; N = 6, means ± SD
This section presents molecules with their documented Displacement of [3H]paclitaxel (%) values.
readout: Displacement of [3H]paclitaxel (%)

1. C=CC=CC(C)[C@H]1OC(=O)C=CC=C[C@@H](C)[C@H](O)CCC=C[C@H](C)[C@H](O)[C@@H](C)C=CCC[C@@H](O)[C@H]1C (stereo partly drawn): 27 ± 8%
2. C=CC=C[C@H](C)[C@@H](O)[C@H](C)[C@H](O)CCC=C[C@H](C)[C@@H](O)[C@@H](C)C=CCCCCCCCCC(=O)O: 16 ± 3%
3. C=CC=C[C@H](C)[C@@H](O)[C@H](C)[C@H](O)CCC=C[C@H](C)[C@@H](O)[C@@H](C)C=CCCCCCCCCC(=O)OC: 17 ± 1%
4. C=CC=C[C@H](C)[C@@H](O)[C@H](C)[C@H](O)CCC=C[C@H](C)[C@@H](O)[C@@H](C)C=CCCCCCCCCCO: 21 ± 2%
5. C=CC=C[C@H](C)[C@H]1OC(=O)CCCCCCCCC=C[C@H](C)[C@H](O)[C@@H](C)C=CCC[C@@H](O)[C@H]1C: 18 ± 5%
6. C=C/C=C\[C@H](C)[C@H](OC(N)=O)[C@@H](C)[C@H](O)[C@@H](C)C/C(C)=C\[C@H](C)[C@@H](O)[C@@H](C)/C=C\[C@@H](O)C[C@@H]1OC(=O)[C@H](C)[C@@H](O)[C@H]1C [discodermolide, (+)-discodermolide]: 64 ± 2%
